Taken from PubChem BioAssay (NCI).

System: CAKI-1 renal
method-description: NCI tumour cell line growth inhibition, 48 h; in the data active = GI50 below about 0.43 µM; inactive = the rest
Outcomes: yes for active, no for inactive

{"compound": "CCc1ccc(CCC(=O)Nc2ncc(Cc3ccc(Cl)cc3)s2)o1", "answer-label": "no"}
{"compound": "CNC(=O)c1cc(Oc2ccc(NC(=O)Nc3ccc(Cl)c(C(F)(F)F)c3)c(F)c2)ccn1", "answer-label": "no"}
{"compound": "COc1cccc(CC(C)=C(c2ccc(OCCN3CCCCC3)cc2)c2ccc(OCCN3CCCCC3)cc2)c1", "answer-label": "no"}
{"compound": "COC(=O)C1=C(O)[C@H](C(=O)OC)C2(O)C(C(=O)OC)[C@H](c3ccc(OC(=O)C(C)c4ccc(CC(C)C)cc4)cc3)C[C@@H]1[C@@H]2C(=O)OC (stereo partly specified)", "answer-label": "no"}
{"compound": "C[C@]12CC[C@H]3[C@@H](CC=C4C[C@@H](N5CCCC5)CC[C@@]43C)[C@@H]1C/C(=C\\c1cccc(OCCN3CCOCC3)c1)[C@@H]2O", "answer-label": "no"}
{"compound": "CCC(C)Nc1ccc(N)cc1 (stereo unspecified)", "answer-label": "no"}
{"compound": "COc1cc(/C=N/Nc2ncnc3c2cnn3-c2ccccc2)ccc1O", "answer-label": "no"}
{"compound": "O=C1CC(c2cccc(F)c2)Nc2cc3c(cc21)OCO3 (stereo unspecified)", "answer-label": "yes"}
{"compound": "COc1ncc(Nc2ncc([C@@H](C)N3CCN(S(C)(=O)=O)CC3)cc2-c2nc(C)nc(N)n2)cc1F", "answer-label": "yes"}
{"compound": "C[CH2][Ge]([CH2]C)([CH2]C)[O]C(=O)C(OC(C)=O)c1ccccc1 (stereo unspecified)", "answer-label": "no"}
{"compound": "CC1=C(c2ccccc2)C(O)(c2ccccc2)C(C)C1=O (stereo unspecified)", "answer-label": "no"}

* * *

Tested on: MCF7 breast
method-description: NCI tumour cell line growth inhibition, 48 h; in the data active means GI50 below about 0.43 µM; inactive means the rest
Outcomes: active, inactive

{"compound": "CCOCCCn1c2c(c3c(O)cccc31)C(=O)c1ccccc1-2", "answer-label": "inactive"}
{"compound": "COc1ccc(-c2nc(-c3ccc(C)cc3)cn3ccnc23)cc1", "answer-label": "inactive"}
{"compound": "Cc1ccccc1NC(=O)c1sc2nc(C)c(C(=O)/C=C/c3ccccc3)cc2c1N", "answer-label": "inactive"}
{"compound": "CNC(=O)c1c(NC(=O)c2ccc(C(C)(C)C)cc2)sc2c1CCC(=O)C2", "answer-label": "active"}
{"compound": "COc1cccc(CC(C)=C(c2ccc(OCCN3CCCCC3)cc2)c2ccc(OCCN3CCCCC3)cc2)c1", "answer-label": "inactive"}
{"compound": "CC1=C2[C@@H](CC1)[C@]1(C)O[C@@](C(C)C)(C[C@H]1OC(=O)CO)[C@H]2OC(=O)C1CC1c1ccccc1 (some centres undefined)", "answer-label": "inactive"}
{"compound": "C[C@]12CC[C@H]3[C@@H](CC=C4C[C@@H](N5CCCC5)CC[C@@]43C)[C@@H]1C/C(=C\\c1cccc(OCCN3CCOCC3)c1)[C@@H]2O", "answer-label": "inactive"}
{"compound": "O=C1CC(c2cccc(F)c2)Nc2cc3c(cc21)OCO3 (centres undefined)", "answer-label": "active"}
{"compound": "Cc1cc2c(cc1Cl)S/C(=C/C(=O)O)C(Nc1ccc3ncsc3c1)=NS2(=O)=O", "answer-label": "inactive"}
{"compound": "CCN(CC)CCN1C(=O)c2c(c3c4ccccc4[nH]c3c3ccc4ccccc4c23)C1=O", "answer-label": "active"}
{"compound": "Nc1nc([Se])c2ncn(C3OC(CO)C(O)C3O)c2n1 (centres undefined)", "answer-label": "inactive"}
{"compound": "O=C(N/N=C\\c1ccc(N(CCCl)CCCl)cc1[N+](=O)[O-])c1cccnc1", "answer-label": "inactive"}
{"compound": "COc1cc(Nc2ncc(-c3ccccc3)o2)cc(OC)c1", "answer-label": "inactive"}
{"compound": "NCCCC[C@@H]1NC(=O)[C@H](CC(=O)O)NC(=O)CNC(=O)[C@H](CCCN=C(N)N)NC(=O)[C@@H](N)CSSC[C@@H](C(=O)O)NC(=O)[C@H](CC(=O)O)NC(=O)[C@@H]2CCCN2C(=O)CNC1=O", "answer-label": "inactive"}
